- target: purified recombinant human LDHA protein (Homo sapiens, UniProt P00338)
- assay-remarks: Lactate dehydrogenase-A (LDHA) inhibition assay, NADH consumption
- Format: biochemical
- condition-notes: LDHA; 100 µg/ml; read-out: Mean Inhibition % at 100 µg/ml ± SD
property: inhibition at 100 µg/mL

The reported inhibition at 100 µg/mL value, purified recombinant human LDHA protein (Homo sapiens, UniProt P00338), for CCc1ccc(C=Nn2c(C)nc3ccc(F)cc3c2=O)s1 reads 53.6%

Lab entry: purified recombinant human LDHA protein (Homo sapiens, UniProt P00338) assay, compound COc1cc(C=NNc2nc3ccccc3[nH]c2=O)cc(I)c1O , inhibition at 100 µg/mL = 27.4%

Field inhibition at 100 µg/mL (system: purified recombinant human LDHA protein (Homo sapiens, UniProt P00338)) for entry COc1cc2nc(C)n(N=Cc3cc(OC)c(O)c([N+](=O)[O-])c3)c(=O)c2cc1OC = 62.5%

Record COc1cc(C=Nn2c(C)nc3ccc(Cl)cc3c2=O)ccc1OCc1ccccc1 ; system purified recombinant human LDHA protein (Homo sapiens, UniProt P00338); inhibition at 100 µg/mL = 44.8%

# value of inhibition at 100 µg/mL, purified recombinant human LDHA protein (Homo sapiens, UniProt P00338), item COc1cc2nc(C)n(N=Cc3ccc(C(=O)O)cc3)c(=O)c2cc1OC = 32%

Reported purified recombinant human LDHA protein (Homo sapiens, UniProt P00338) inhibition at 100 µg/mL for item COc1ccc2cc(/C=N/n3c(C)nc4ccc(Cl)cc4c3=O)ccc2c1 was 13.3%

The reported inhibition at 100 µg/mL value, purified recombinant human LDHA protein (Homo sapiens, UniProt P00338), for COc1cc(C=NNc2nc3ccccc3[nH]c2=O)cc([N+](=O)[O-])c1O reads 40.6%

Given the compound CCc1ccc(/C=N/n2c(C)nc3ccc(Cl)cc3c2=O)s1 and test system purified recombinant human LDHA protein (Homo sapiens, UniProt P00338), the measured inhibition at 100 µg/mL is 27.1%

// assay purified recombinant human LDHA protein (Homo sapiens, UniProt P00338), entry COc1ccc2cc(C=NNc3nc4ccccc4[nH]c3=O)ccc2c1 , inhibition at 100 µg/mL value = 21.1%

---

Give measured IC50 for each item. Keep answers brief.
- System: Escherichia coli (ATCC 25922)
- assay-remarks: Antibacterial activity, CFU viability
- Format: cell-based
- condition-notes: ATCC25922, mean of two determinations, read-out: Mean IC50 ± SD
- Description: Pure standard microbial isolates collected from King Khaled University Hospital were tested in this study, including Enterococcus faecalis (ATCC 29122) as Gram positive bacteria and Escherichia coli (ATCC 25922) and Bacteroides fragilis (ATCC 25285) as Gram negative bacteria. […] The antibacterial potency of tested compounds was expressed as the residual number of CFU with reference to the initial inoculums. […]
Answer by giving the amount and then stating its unit.

Looking up O=C(O)c1ccc(/C=N/Nc2nc3ccccc3[nH]c2=O)cc1 [Compound 4d] , I found its IC50 recorded as 30.6 µg/mL

// recorded IC50 for COc1ccc2cc(C=NNc3nc4ccccc4[nH]c3=O)ccc2c1 [Compound 4e] : 31.4 µg/mL

The measured IC50 associated with NN=c1[nH]c2ccccc2[nH]c1=O [Compound 2] reads 13.7 µg/mL

response.value for Cc1nc2ccc(Cl)cc2c(=O)n1N [Compound 5b] (field: IC50) = 13.6 µg/mL

The compound identified as CC1(C)S[C@@H]2[C@H](NC(=O)[C@H](N)c3ccccc3)C(=O)N2[C@H]1C(=O)O [Ampicillin, ampicillin, reference compound] registered its IC50 at 20.2 µg/mL

Summary for this compound, COc1cc(C=Nn2c(C)nc3ccc(Cl)cc3c2=O)ccc1OCc1ccccc1 [Compound 6e] : IC50 is 15.7 µg/mL

Note to self: IC50 recorded for CCc1ccc(C=Nn2c(C)nc3ccc(F)cc3c2=O)s1 [Compound 6g] was 24.8 µg/mL

Recorded result, COc1cc(C=NNc2nc3ccccc3[nH]c2=O)cc([N+](=O)[O-])c1O [Compound 4c] , IC50: 12.7 µg/mL

CCc1ccc(/C=N/n2c(C)nc3ccc(Cl)cc3c2=O)s1 [Compound 6f] yielded IC50 of 33.4 µg/mL

Value of measured IC50 for the entry COc1cc2nc(C)n(N=Cc3cc(OC)c(O)c([N+](=O)[O-])c3)c(=O)c2cc1OC [Compound 6a] : 7.9 µg/mL

// IC50 value for COc1cc(C=NNc2nc3ccccc3[nH]c2=O)cc(I)c1O [Compound 4b] : 13.6 µg/mL

For reference, reported IC50 for COc1cc2nc(C)n(N=Cc3ccc(OCc4ccccc4)c(OC)c3)c(=O)c2cc1OC [Compound 6d] stands at 18.4 µg/mL

response.value for O=c1[nH]c2ccccc2[nH]c1=O [Compound 1] (field: IC50) = 25.9 µg/mL

Looking up COc1cc(C=NNc2nc3ccccc3[nH]c2=O)cc(Cl)c1O [Compound 4a] , I found its IC50 recorded as 15 µg/mL

Reported IC50 ( COc1cc2nc(C)n(N=Cc3ccc(C(=O)O)cc3)c(=O)c2cc1OC [Compound 6b] ) = 18.2 µg/mL

What the record says about COc1ccc2cc(/C=N/n3c(C)nc4ccc(Cl)cc4c3=O)ccc2c1 [Compound 6c] : IC50 is 26.9 µg/mL

---

- target: COX-2 (Homo sapiens)
- Construct: purchased Cayman Chemical Company 701080
- Sequence (P35354 18-604): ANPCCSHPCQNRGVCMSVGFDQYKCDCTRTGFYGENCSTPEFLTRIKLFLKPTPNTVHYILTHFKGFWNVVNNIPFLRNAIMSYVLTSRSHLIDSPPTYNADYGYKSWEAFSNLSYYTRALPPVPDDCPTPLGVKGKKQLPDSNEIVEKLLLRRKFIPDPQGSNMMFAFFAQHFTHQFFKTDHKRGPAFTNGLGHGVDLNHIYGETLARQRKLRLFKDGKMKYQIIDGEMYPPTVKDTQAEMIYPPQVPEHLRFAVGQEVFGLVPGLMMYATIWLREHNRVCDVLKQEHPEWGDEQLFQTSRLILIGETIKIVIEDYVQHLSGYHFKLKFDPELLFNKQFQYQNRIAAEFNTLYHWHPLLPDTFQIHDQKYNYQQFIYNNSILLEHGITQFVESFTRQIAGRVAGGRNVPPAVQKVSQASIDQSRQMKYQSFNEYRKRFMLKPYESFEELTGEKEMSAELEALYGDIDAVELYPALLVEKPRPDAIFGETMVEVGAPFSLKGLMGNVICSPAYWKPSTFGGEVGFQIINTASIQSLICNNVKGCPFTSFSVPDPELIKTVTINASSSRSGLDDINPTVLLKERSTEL
- assay-remarks: Cyclooxygenase (COX-2) inhibition assay (Cayman kit 701080)
- Format: biochemical
- condition-notes: 100 µg/ml, read-out: Mean Inhibition % at 100 µg/ml ± SD
Recorded inhibition at 100 µg/mL determines the label; the label ranges are class 1: < 10%; class 2: ≥ 10% and < 40%; class 3: ≥ 40%

Asked: Returns: class label. Input: COc1cc(C=NNc2nc3ccccc3[nH]c2=O)cc(I)c1O [Compound 4b]
Given back: class 2

Asked: Returns: class label. Input: CCc1ccc(C=Nn2c(C)nc3ccc(F)cc3c2=O)s1 [Compound 6g]
Given back: class 2

Asked: Band assignment needed for COc1ccc2cc(C=NNc3nc4ccccc4[nH]c3=O)ccc2c1 [Compound 4e] please.
Given back: class 2

Asked: Which category fits this record: COc1cc(C=NNc2nc3ccccc3[nH]c2=O)cc([N+](=O)[O-])c1O [Compound 4c]
Given back: class 2

Asked: Lab note: which band did Cc1nc2ccc(Cl)cc2c(=O)n1N [Compound 5b] land in?
Given back: class 1

Asked: Pick a category. Item: NN=c1[nH]c2ccccc2[nH]c1=O [Compound 2]
Given back: class 1

Asked: Which class is correct for the following molecule? COc1cc2nc(C)n(N=Cc3ccc(OCc4ccccc4)c(OC)c3)c(=O)c2cc1OC [Compound 6d]
Given back: class 3

Asked: Which class holds O=c1[nH]c2ccccc2[nH]c1=O [Compound 1] ?
Given back: class 2

Asked: Which band does O=C(O)c1ccc(/C=N/Nc2nc3ccccc3[nH]c2=O)cc1 [Compound 4d] fall in?
Given back: class 2

Asked: Tag the class for COc1cc(C=NNc2nc3ccccc3[nH]c2=O)cc(Cl)c1O [Compound 4a]
Given back: class 1

Asked: # classify by inhibition at 100 µg/mL band: COc1ccc2cc(/C=N/n3c(C)nc4ccc(Cl)cc4c3=O)ccc2c1 [Compound 6c]
Given back: class 2

Asked: Lab note: sort COc1cc(C=Nn2c(C)nc3ccc(Cl)cc3c2=O)ccc1OCc1ccccc1 [Compound 6e] into the matching inhibition at 100 µg/mL band.
Given back: class 3

Asked: Which inhibition at 100 µg/mL category applies to COc1cc2nc(C)n(N=Cc3ccc(C(=O)O)cc3)c(=O)c2cc1OC [Compound 6b] here?
Given back: class 2

Asked: Would you mind sorting COc1cc2nc(C)n(N=Cc3cc(OC)c(O)c([N+](=O)[O-])c3)c(=O)c2cc1OC [Compound 6a] into the appropriate category?
Given back: class 3
